- assay_protocol: qHTS of pediatric cancer cell lines to identify multiple opportunities for drug repurposing: Primary screen for LAN-5 cells (AID 1347100)
- recorded_conditions: LAN-5 neuroblastoma viability, CellTiter-Glo luminescence, 48 h; series mostly up to 46 µM
Inconclusive results are not listed. Active and inactive are the calls of the source. Calls come from the whole dose curve; as a rule, active = well fitted cell-killing curve with a large enough effect; inconclusive = small, poorly fitted or top-dose-only effect; inactive = no such curve, though single readings can be large or run the other way.
Outcome field: choose from active, inactive

**Query** Recorded test call requested for Cc1ccc(S(=O)(=O)N[C@@H](Cc2ccccc2)C(=O)CCl)cc1
**Result** active

**Query** Recorded test call requested for CCOc1cc(N)c(Cl)cc1C(=O)NCC1CN(Cc2ccc(F)cc2)CCO1 (stereo not drawn)
**Result** inactive

**Query** Recorded test call requested for CC[C@H](NC(C)C)[C@H](O)c1ccc(O)c2[nH]c(=O)ccc12
**Result** inactive

**Query** Recorded test call requested for S=P(N1CC1)(N1CC1)N1CC1
**Result** active

**Query** Recorded test call requested for CC(C)OC(=O)OCOP(=O)(CO[C@H](C)Cn1cnc2c(N)ncnc21)OCOC(=O)OC(C)C
**Result** inactive

**Query** Recorded test call requested for COc1nc(N)nc2c1ncn2[C@@H]1O[C@H](CO)[C@@H](O)[C@@H]1O
**Result** inactive

**Query** Recorded test call requested for COC(=O)Nc1nc2ccc(C(=O)c3ccccc3)cc2[nH]1
**Result** active

**Query** Recorded test call requested for CC(C)OC(=O)C(C(=O)OC(C)C)=C1SC=CS1
**Result** inactive

**Query** Recorded test call requested for NC(=O)c1ccc2[nH]ccc2c1
**Result** inactive

**Query** Recorded test call requested for COC(=O)Nc1nc2ccc(Sc3ccccc3)cc2[nH]1
**Result** active

**Query** Recorded test call requested for COc1ncnc(NS(=O)(=O)c2ccc(N)cc2)c1OC
**Result** inactive

**Query** Recorded test call requested for Nc1nc(N)nc(-c2cc(Cl)ccc2Cl)n1
**Result** inactive

**Query** Recorded test call requested for CCN1CCCC1CNC(=O)c1cc(S(N)(=O)=O)ccc1OC (stereo not drawn)
**Result** inactive

**Query** Recorded test call requested for O=C(O)c1cn(C2CC2)c2cc(N3CCNCC3)c(F)cc2c1=O
**Result** inactive

**Query** Recorded test call requested for CC1(C)[C@H](C(=O)O)N2C(=O)C[C@H]2S1(=O)=O
**Result** inactive

**Query** Recorded test call requested for CC(=O)[C@H]1CC[C@H]2[C@@H]3CC=C4C[C@@H](O)CC[C@]4(C)[C@H]3CC[C@]12C
**Result** inactive

**Query** Recorded test call requested for O=NN(CCCl)C(=O)NC1CCCCC1
**Result** inactive

**Query** Recorded test call requested for CN1CCN(c2c(F)cc3c(=O)c(C(=O)O)cn(CCF)c3c2F)CC1
**Result** inactive

**Query** Recorded test call requested for COc1cc2nc(N3CCCN(C)CC3)nc(NC3CCN(Cc4ccccc4)CC3)c2cc1OC
**Result** active

**Query** Recorded test call requested for CCC(=O)O[C@]1(C(=O)CCl)[C@@H](C)C[C@H]2[C@@H]3CCC4=CC(=O)C=C[C@]4(C)[C@@]3(F)[C@@H](O)C[C@@]21C
**Result** inactive

**Query** Recorded test call requested for CCN(CC)CCn1c(=O)c(Cc2ccc(OC)cc2)nc2ccccc21
**Result** inactive

**Query** Recorded test call requested for Cc1ccnc2c1NC(=O)c1cccnc1N2C1CC1
**Result** inactive

**Query** Recorded test call requested for CC(N)C12CC3CC(CC(C3)C1)C2 (stereo not drawn)
**Result** inactive
